test system: Vero E6; assay: cell viability relative to DMSO; higher = less toxic; details: 72 h; 10000 nM
RECORDED_ENDPOINT: cell viability
Mention the unit after the number when you answer.

Worked set:
May I ask what cell viability has been recorded for NC(=O)c1ncn([C@@H]2O[C@H](CO)[C@@H](O)[C@H]2O)c1O ?
101%

May I ask what cell viability has been recorded for O=C(OCCN1CCOCC1)C1(c2ccccc2)CCCCC1 ?
105%

# next molecule below
May I ask what cell viability has been recorded for Cn1c(=O)c2c(ncn2CC(=O)O)n(C)c1=O ?
86.5%

###

tested on: Vero E6; test: cell viability relative to DMSO; higher = less toxic; conditions: 72 h; 10 nM
RECORDED_ENDPOINT: cell viability (%)
Please reply with the bare figure in % and do not write the unit itself.

Return cell viability measured with Vero E6 given this molecule: Cc1ccccc1C(=O)Nc1ccc(C(=O)N2CCCC(O)c3cc(Cl)ccc32)c(C)c1 (centres undefined)
100

Return cell viability measured with Vero E6 given this molecule: O=C(O)Cn1c(C(=O)Nc2nc(-c3ccccc3Cl)cs2)cc2ccccc21
106

Return cell viability measured with Vero E6 given this molecule: Nc1ncnc2c1c(-c1ccc(Oc3ccccc3)cc1)nn2C1CCCC1
100

Return cell viability measured with Vero E6 given this molecule: O=C1c2ccccc2-c2n[nH]c3cccc1c23
102

Return cell viability measured with Vero E6 given this molecule: Cn1c(=O)c2c(ncn2CC(=O)O)n(C)c1=O
105

Return cell viability measured with Vero E6 given this molecule: CCOc1cc(N)c(Cl)cc1C(=O)NCC1CN(Cc2ccc(F)cc2)CCO1 (centres undefined) [mosapride]
102

More entries:
Return cell viability measured with Vero E6 given this molecule: CC(OC(=O)NCC1(CC(=O)O)CCCCC1)OC(=O)C(C)C (centres undefined)
97.8

Return cell viability measured with Vero E6 given this molecule: NC(=O)CN1C=CCC(C(N)=O)=C1 [caricotamide]
95.4

Return cell viability measured with Vero E6 given this molecule: COc1nc(C)cnc1NS(=O)(=O)c1cccnc1-c1ccc(-c2nnco2)cc1
96.5

Return cell viability measured with Vero E6 given this molecule: CNC1CC(N)C(O)C(OC2OC(CO)C(O)C3OC4(OC(C(N)CO)C(O)C(O)C4O)OC23)C1O (centres undefined)
93.4

Return cell viability measured with Vero E6 given this molecule: CC(=O)O[C@]1(C(C)=O)CC[C@H]2[C@@H]3C[C@H](C)C4=CC(=O)CC[C@]4(C)[C@H]3CC[C@@]21C [medroxyprogesterone-acetate]
97.9

Return cell viability measured with Vero E6 given this molecule: CC(=C(CCO)SSCC1CCCO1)N(C=O)Cc1cnc(C)nc1N (stereo in doubt)
95.5

Return cell viability measured with Vero E6 given this molecule: N=C(N)NC(=N)Nc1cccc(Cl)c1 [m-chlorophenylbiguanide]
101

Return cell viability measured with Vero E6 given this molecule: CC(=O)c1cnc2ccc(-c3cc(Cl)c(O)c(Cl)c3)nc2c1N[C@H]1CC[C@H](CN(C)C)CC1
100

Entry source: the supplement of paper PMC13380429
